mean % injury to soybean at 2 g/ha values for the compounds below.
System: mutant line W28
Experiment: Test B postemergence cross resistance test
Assay type: in vivo, soybean
Settings: Glycine max, post-emergence; W28, 2 g/ha postemergence
Field: numeric (%). Do not append units.

Solved cases (3 shown):
COc1nc(C)nc(NC(=O)NS(=O)(=O)c2ccccc2Cl)n1
0
COC(=O)c1ccccc1S(=O)(=O)NC(=O)Nc1nc(C)cc(C)n1
18
COC(=O)c1ccccc1S(=O)(=O)NC(=O)N(C)c1nc(C)nc(OC)n1
8

Turning now to a further compound:
## Task What value of mean % injury to soybean at 2 g/ha has been reported for the following compound? "COC(=O)c1cccnc1S(=O)(=O)NC(=O)Nc1nc(OC)cc(OC)n1"
## Result 84

---

soybean crop injury (%) at 64 g/ha values for the compounds below.
System: mutant line W17
Assay: Test B postemergence cross resistance test
Assay type: in vivo, soybean
Settings: Glycine max, post-emergence; W17, 64 g/ha postemergence
Field: numeric (%). Do not append units.

Solved cases (3 shown):
COc1cc(OC)nc(NC(=O)NS(=O)(=O)c2ncccc2C(=O)N(C)C)n1 [Compound 6]
40
CC(C)C1(C)N=C(c2ncccc2C(=O)O)NC1=O (stereo not shown) [Compound 11]
61
COC(=O)c1sccc1S(=O)(=O)NC(=O)Nc1nc(C)nc(OC)n1 [Compound 2]
3

Turning now to a further compound:
## Task What value of soybean crop injury (%) at 64 g/ha has been reported for the following compound? CCOC(=O)c1ccccc1S(=O)(=O)NC(=O)Nc1nc(Cl)cc(OC)n1 [Compound 5]
## Result 0

---

System: mutant W19
Experiment: Test A postemergence herbicide spray, greenhouse pots
Format: in vivo, soybean
Details: W19, 8 g/ha postemergence
mean % injury values for the compounds below.
Field: numeric (%). Do not append units.

Solved cases (4 shown):
COC(=O)c1cccnc1S(=O)(=O)NC(=O)Nc1nc(OC)cc(OC)n1
84
COc1nc(C)nc(NC(=O)NS(=O)(=O)c2ccccc2Cl)n1
12
COC(=O)c1sccc1S(=O)(=O)NC(=O)Nc1nc(C)nc(OC)n1
0
COC(=O)c1ccccc1S(=O)(=O)NC(=O)N(C)c1nc(C)nc(OC)n1
14

Turning now to a further compound:
## Task What value of mean % injury has been reported for the following compound? "CCS(=O)(=O)c1cccnc1S(=O)(=O)NC(=O)Nc1nc(OC)cc(OC)n1"
## Result 65

---

System: mutant line W28
Test: Test B postemergence cross resistance test
Type: in vivo, soybean
Conditions: Glycine max, post-emergence; W28, 16 g/ha postemergence
mean % injury to soybean at 16 g/ha values for the compounds below.
Field: numeric (%). Do not append units.

Solved cases (3 shown):
CCOC(=O)c1ccccc1S(=O)(=O)NC(=O)Nc1nc(Cl)cc(OC)n1
0
COc1cc(OC)nc(NC(=O)NS(=O)(=O)c2ncccc2C(=O)N(C)C)n1
0
COC(=O)c1sccc1S(=O)(=O)NC(=O)Nc1nc(C)nc(OC)n1
0

Turning now to a further compound:
## Task What value of mean % injury to soybean at 16 g/ha has been reported for the following compound? CC(C)C1(C)N=C(c2ncccc2C(=O)O)NC1=O (stereo not shown)
## Result 45

---

Test system: mutant line W23
Experiment: Test B postemergence cross resistance test
Assay type: in vivo, soybean
Conditions: Glycine max, post-emergence; W23, 16 g/ha postemergence
ASSAY_READOUT: percent soybean injury at 16 g/ha
Value and unit, in that order.

## Task Tell me reported percent soybean injury at 16 g/ha for "COc1cc(OC)nc(NC(=O)NS(=O)(=O)c2ncccc2C(=O)N(C)C)n1" , tested with mutant line W23.
## Result 5%

## Task Tell me reported percent soybean injury at 16 g/ha for CC(C)C1(C)N=C(c2ncccc2C(=O)O)NC1=O (stereo not shown) , tested with mutant line W23.
## Result 41%

## Task Tell me reported percent soybean injury at 16 g/ha for "CCOC(=O)c1ccccc1S(=O)(=O)NC(=O)Nc1nc(Cl)cc(OC)n1" , tested with mutant line W23.
## Result 0%

## Task Tell me reported percent soybean injury at 16 g/ha for "COC(=O)c1sccc1S(=O)(=O)NC(=O)Nc1nc(C)nc(OC)n1" , tested with mutant line W23.
## Result 0%

---

System: mutant W19
Experiment: Test A postemergence herbicide spray, greenhouse pots
Assay type: in vivo, soybean
Details: W19, 32 g/ha postemergence
mean % injury values for the molecules below.
Value and unit, in that order.

Solved cases (3 shown):
COC(=O)c1ccccc1S(=O)(=O)NC(=O)N(C)c1nc(C)nc(OC)n1
63%
CCS(=O)(=O)c1cccnc1S(=O)(=O)NC(=O)Nc1nc(OC)cc(OC)n1
80%
COC(=O)c1cccnc1S(=O)(=O)NC(=O)Nc1nc(OC)cc(OC)n1
95%

Turning now to a further molecule:
## Task What value of mean % injury has been reported for the following molecule? "COC(=O)c1sccc1S(=O)(=O)NC(=O)Nc1nc(C)nc(OC)n1"
## Result 7%

---

Tested on: mutant line W17
Assay: Test B postemergence cross resistance test
Assay type: in vivo, soybean
Details: Glycine max, post-emergence; W17, 16 g/ha postemergence
ASSAY_READOUT: soybean crop injury (%) at 16 g/ha
Field: numeric (%). Do not append units.

COC(=O)c1sccc1S(=O)(=O)NC(=O)Nc1nc(C)nc(OC)n1 [Compound 2]
0

## Task What value of soybean crop injury (%) at 16 g/ha has been reported for the following compound? CCOC(=O)c1ccccc1S(=O)(=O)NC(=O)Nc1nc(Cl)cc(OC)n1 [Compound 5]
## Result 0

## Task What value of soybean crop injury (%) at 16 g/ha has been reported for the following compound? CC(C)C1(C)N=C(c2ncccc2C(=O)O)NC1=O (stereo not shown) [Compound 11]
## Result 39

## Task What value of soybean crop injury (%) at 16 g/ha has been reported for the following compound? COc1cc(OC)nc(NC(=O)NS(=O)(=O)c2ncccc2C(=O)N(C)C)n1 [Compound 6]
## Result 0
